Target: full-length P. pyralis luciferase (Photinus pyralis, UniProt P08659, K549A/L550V/N119G/N50D/S548I)
Sequence (P08659 whole entry N50D/N119G/S548I/K549A/L550V, looked up): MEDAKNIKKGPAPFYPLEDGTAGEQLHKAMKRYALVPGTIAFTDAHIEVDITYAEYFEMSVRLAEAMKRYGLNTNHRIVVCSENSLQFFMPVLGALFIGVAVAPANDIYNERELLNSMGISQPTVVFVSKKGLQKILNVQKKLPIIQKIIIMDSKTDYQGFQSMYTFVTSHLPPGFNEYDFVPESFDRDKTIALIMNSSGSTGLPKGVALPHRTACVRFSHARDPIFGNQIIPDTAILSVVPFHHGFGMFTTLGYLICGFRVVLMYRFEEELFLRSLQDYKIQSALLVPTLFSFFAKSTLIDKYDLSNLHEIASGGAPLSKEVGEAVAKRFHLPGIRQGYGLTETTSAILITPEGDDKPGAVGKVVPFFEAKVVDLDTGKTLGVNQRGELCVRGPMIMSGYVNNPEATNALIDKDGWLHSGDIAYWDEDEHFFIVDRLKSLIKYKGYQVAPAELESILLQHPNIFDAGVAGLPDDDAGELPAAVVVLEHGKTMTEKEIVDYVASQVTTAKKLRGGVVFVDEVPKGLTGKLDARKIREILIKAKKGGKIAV
Type: cell-based
// assign label 1 if Luciferase Assay Z-score falls strictly below -0.3, else label 0 (ties count as label 0)

Answer whether the compound CC1=C2C[C@H]3[C@@H](CC=C4C[C@@H](O)CC[C@@]43C)[C@@H]2CC[C@]12O[C@@H]1C[C@H](C)CN[C@H]1[C@H]2C has Luciferase Assay Z-score strictly less than -0.3
label 0

Below -0.3 on Luciferase Assay Z-score? Entry CN(C)C(=N)N=C(N)N
label 1

Say whether its Luciferase Assay Z-score is strictly beneath -0.3. Entry: CC[C@H](CO)Nc1nc(NCc2ccccc2)c2ncn(C(C)C)c2n1
label 1

Record NCCCNCCSP(=O)(O)O : is its Luciferase Assay Z-score strictly below -0.3?
label 0

Does the reported Luciferase Assay Z-score of the following compound sit strictly below -0.3? O=C(CCBr)N1CCN(C(=O)CCBr)CC1
label 0

Please determine if COc1cc2ncnc(Nc3cccc(Br)c3)c2cc1OC is below -0.3 in terms of Luciferase Assay Z-score.
label 1

Dear reviewer, please state whether OC[C@H]1O[C@@H](n2cnc3c2NC=NC[C@H]3O)C[C@@H]1O has Luciferase Assay Z-score strictly beneath -0.3.
label 0

# TODO verify Luciferase Assay Z-score < -0.3 strictly for this compound: O=P1(N(CCCl)CCCl)NCCCO1 (stereo not drawn) [Cyclophosphamide]
label 0

Record Cc1ccc(NC(=O)c2ccc(CN3CCN(C)CC3)cc2)cc1Nc1nccc(-c2cccnc2)n1 : is its Luciferase Assay Z-score strictly below -0.3?
label 1
